target: recombinant soluble 1968 H3 HA (A/Aichi/2/1968) (Influenza A virus A/Aichi/2/1968 (H3N2)) (UniProt P03437); experiment: ELISA, supernate
assay_metric: OD (OD)
// units = OD; emit number, no label

# return recorded OD for input mAb 3J10 (antibody, V domains shown) VH: EVQLVESGGGVVQPGRSLRLSCAASGFSFSNYAMHWVRQAPGKGLEWVALISFDGSDKYYADSVKGRFTMSRDNSKNTLYLQMNSLRAEDTAVYYCARDEPYCGGDCFAFDVWGQGTMVTVS VL: QSVLTQPPSVSGAPGQRVTISCTGSSSNIGAGYDVHWYQQLPGTAPKLLIYANNNRPSGVPDRFSGSKSGTSASLAITGLQAEDEADYYCQSYDSSLSGGVFGTGTTVTVLG 0.076
